Attribution: patent US20130096170A1

experiment: clinical; details: human, plasma, intravenous, t1/2 Median, Dose Level 4, LD 1.00/CD 2.00 μg/kg/hr; full evaluable population
READOUT: half-life (min)
Report the value in min with no unit label.

Complete the entry with half-life for Cc1cccc([C@H](C)c2cnc[nH]2)c1C 128

====

experiment: clinical; settings: human, plasma, intravenous, AUC0-∞, Table 30 key summary (mean); Dose Level 3, LD 1.00/CD 0.7 μg/kg/hr; full evaluable population
READOUT: AUC(0-inf) (ng·h/mL)
Report the value in ng·h/mL with no unit label.

Complete the entry with AUC(0-inf) for Cc1cccc([C@H](C)c2cnc[nH]2)c1C 17.3

====

experiment: clinical; conditions: human, in vivo, Vss
READOUT: Vd (L)
Report the value in L with no unit label.

Complete the entry with Vd for Cc1cccc([C@H](C)c2cnc[nH]2)c1C 6.25

====

assay: clinical; settings: human, plasma, intravenous, AUC0-∞, Table 30 key summary (mean); Dose Level 4, LD 1.00/CD 2.00 μg/kg/hr; full evaluable population
READOUT: AUC(0-inf) (ng·h/mL)
Report the value in ng·h/mL with no unit label.

Complete the entry with AUC(0-inf) for Cc1cccc([C@H](C)c2cnc[nH]2)c1C [dexmedetomidine] 29

====

test: clinical; conditions: human, plasma, intravenous, Tmax Mean, Dose Level 2, LD 0.50/CD 0.4 μg/kg/hr; full evaluable population
READOUT: Tmax (h)
Report the value in h with no unit label.

Complete the entry with Tmax for Cc1cccc([C@H](C)c2cnc[nH]2)c1C [dexmedetomidine] 8.8

====

test: clinical; settings: human, plasma, intravenous, Cmax Median, Dose Level 2, LD 0.50/CD 0.4 μg/kg/hr; full evaluable population
READOUT: Cmax (ng/mL)
Report the value in ng/mL with no unit label.

Complete the entry with Cmax for Cc1cccc([C@H](C)c2cnc[nH]2)c1C [dexmedetomidine] 0.581

====

assay: clinical; conditions: human, plasma, intravenous, Tmax Median, Dose Level 3, LD 1.00/CD 0.7 μg/kg/hr; full evaluable population
READOUT: Tmax (min)
Report the value in min with no unit label.

Complete the entry with Tmax for Cc1cccc([C@H](C)c2cnc[nH]2)c1C 22

====

experiment: clinical; details: human, plasma, intravenous, Tmax Mean, Dose Level 1, LD 0.25/CD 0.2 μg/kg/hr; full evaluable population
READOUT: Tmax (h)
Report the value in h with no unit label.

Complete the entry with Tmax for Cc1cccc([C@H](C)c2cnc[nH]2)c1C 7.31

====

experiment: clinical; settings: human, plasma, intravenous, Weight-adjusted CL, Table 30 key summary (mean); Dose Level 3, LD 1.00/CD 0.7 μg/kg/hr; full evaluable population
READOUT: clearance (mL/min/kg)
Report the value in mL/min/kg with no unit label.

Complete the entry with clearance for Cc1cccc([C@H](C)c2cnc[nH]2)c1C 13.3

====

assay: clinical; details: human, in vivo, Tmax, before the end of the loading dose
READOUT: Tmax

Complete the entry with Tmax for Cc1cccc([C@H](C)c2cnc[nH]2)c1C [dexmedetomidine] ~4.8 min

====

assay: clinical; settings: human, plasma, intravenous, Weight-adjusted CL Mean, Dose Level 4, LD 1.00/CD 2.00 μg/kg/hr; full evaluable population
READOUT: clearance

Complete the entry with clearance for Cc1cccc([C@H](C)c2cnc[nH]2)c1C 14.2 mL/min/kg

====

assay: clinical; conditions: human, in vivo, weight adjusted Vd
READOUT: Vd

Complete the entry with Vd for Cc1cccc([C@H](C)c2cnc[nH]2)c1C ~1.6 L/kg

====

assay: clinical; details: human, plasma, intravenous, AUC0-∞, Table 30 key summary (mean); Dose Level 1, LD 0.25/CD 0.2 μg/kg/hr; full evaluable population
READOUT: AUC(0-inf) (ng·h/mL)
Report the value in ng·h/mL with no unit label.

Complete the entry with AUC(0-inf) for Cc1cccc([C@H](C)c2cnc[nH]2)c1C 3.15

====

assay: clinical; conditions: human, plasma, intravenous, t1/2, Table 30 key summary (mean); Dose Level 2, LD 0.50/CD 0.4 μg/kg/hr; full evaluable population
READOUT: half-life
# answer = value followed by unit

Complete the entry with half-life for Cc1cccc([C@H](C)c2cnc[nH]2)c1C [dexmedetomidine] 1.7 h

====

test: clinical; conditions: human, plasma, intravenous, AUC0-t Mean, Dose Level 4, LD 1.00/CD 2.00 μg/kg/hr; full evaluable population
READOUT: AUC(0-t)
# answer = value followed by unit

Complete the entry with AUC(0-t) for Cc1cccc([C@H](C)c2cnc[nH]2)c1C 28.5 ng·h/mL

====

test: clinical; details: human, plasma, intravenous, Vd Median, Dose Level 3, LD 1.00/CD 0.7 μg/kg/hr; full evaluable population
READOUT: Vd (L)
Report the value in L with no unit label.

Complete the entry with Vd for Cc1cccc([C@H](C)c2cnc[nH]2)c1C 51.3

====

test: clinical; details: human, plasma, intravenous, 0.2 ug/kg, CL, Group II (≥6 to <17 y); Dose Level 1 (LD 0.25/CD 0.2 μg/kg/hr); geometric mean; full evaluable population
READOUT: clearance (mL/min)
Report the value in mL/min with no unit label.

Complete the entry with clearance for Cc1cccc([C@H](C)c2cnc[nH]2)c1C [dexmedetomidine] 412

====

test: clinical; details: human, plasma, intravenous, Vd Mean, Dose Level 4, LD 1.00/CD 2.00 μg/kg/hr; full evaluable population
READOUT: Vd (L)
Report the value in L with no unit label.

Complete the entry with Vd for Cc1cccc([C@H](C)c2cnc[nH]2)c1C 62.2

====

experiment: clinical; details: human, in vivo, terminal elimination (β) half-life
READOUT: half-life (h)
Report the value in h with no unit label.

Complete the entry with half-life for Cc1cccc([C@H](C)c2cnc[nH]2)c1C 1.6

====

test: clinical; settings: human, plasma, intravenous, AUC0-t Median, Dose Level 1, LD 0.25/CD 0.2 μg/kg/hr; full evaluable population
READOUT: AUC(0-t) (ng·h/mL)
Report the value in ng·h/mL with no unit label.

Complete the entry with AUC(0-t) for Cc1cccc([C@H](C)c2cnc[nH]2)c1C 1.54

====

assay: clinical; details: human, plasma, intravenous, Weight-adjusted CL Median, Dose Level 1, LD 0.25/CD 0.2 μg/kg/hr; full evaluable population
READOUT: clearance (mL/min/kg)
Report the value in mL/min/kg with no unit label.

Complete the entry with clearance for Cc1cccc([C@H](C)c2cnc[nH]2)c1C 19.9

====

experiment: clinical; conditions: human, plasma, intravenous, Tmax Mean, Dose Level 3, LD 1.00/CD 0.7 μg/kg/hr; full evaluable population
READOUT: Tmax (h)
Report the value in h with no unit label.

Complete the entry with Tmax for Cc1cccc([C@H](C)c2cnc[nH]2)c1C 2.17

====

assay: clinical; settings: human, plasma, intravenous, Cmax, Table 30 key summary (mean); Dose Level 2, LD 0.50/CD 0.4 μg/kg/hr; full evaluable population
READOUT: Cmax (ng/mL)
Report the value in ng/mL with no unit label.

Complete the entry with Cmax for Cc1cccc([C@H](C)c2cnc[nH]2)c1C 0.848

====

assay: clinical; details: human, plasma, intravenous, Cmax Median, Dose Level 3, LD 1.00/CD 0.7 μg/kg/hr; full evaluable population
READOUT: Cmax (ng/mL)
Report the value in ng/mL with no unit label.

Complete the entry with Cmax for Cc1cccc([C@H](C)c2cnc[nH]2)c1C 0.966

====

assay: clinical; conditions: human, plasma, intravenous, t1/2 Mean, Dose Level 2, LD 0.50/CD 0.4 μg/kg/hr; full evaluable population
READOUT: half-life (h)
Report the value in h with no unit label.

Complete the entry with half-life for Cc1cccc([C@H](C)c2cnc[nH]2)c1C 1.74

====

test: clinical; settings: human, plasma, intravenous, Weight-Adjusted CL, Geometric Mean (individual Bayesian estimates), Including Additional 11 Subjects; 12 months-<24 months (n = 13)
READOUT: clearance (mL/min/kg)
Report the value in mL/min/kg with no unit label.

Complete the entry with clearance for Cc1cccc([C@H](C)c2cnc[nH]2)c1C 17.7

====

test: clinical; conditions: human, plasma, intravenous, Weight-adjusted CL Median, Dose Level 2, LD 0.50/CD 0.4 μg/kg/hr; full evaluable population
READOUT: clearance (mL/min/kg)
Report the value in mL/min/kg with no unit label.

Complete the entry with clearance for Cc1cccc([C@H](C)c2cnc[nH]2)c1C [dexmedetomidine] 14.7

====

assay: clinical; conditions: human, in vivo, CL, Population Mean
READOUT: clearance (mL/min)
Report the value in mL/min with no unit label.

Complete the entry with clearance for Cc1cccc([C@H](C)c2cnc[nH]2)c1C 308

====

assay: clinical; conditions: human, plasma, intravenous, Volume of Distribution, Geo. Mean of individual Bayesian estimates, 2 y-<6 y (n = 26)
READOUT: Vd (L)
Report the value in L with no unit label.

Complete the entry with Vd for Cc1cccc([C@H](C)c2cnc[nH]2)c1C [dexmedetomidine] 33.7

====

assay: clinical; details: human, plasma, intravenous, AUC0-∞ Mean, Dose Level 3, LD 1.00/CD 0.7 μg/kg/hr; full evaluable population
READOUT: AUC(0-inf) (µg·h/mL)
Report the value in µg·h/mL with no unit label.

Complete the entry with AUC(0-inf) for Cc1cccc([C@H](C)c2cnc[nH]2)c1C [dexmedetomidine] 0.0173
